system: KO-52 cells; assay: Proliferation assay, spheroid-like growth, KO-52 (MLL wildtype control cell line); type: cell-based, human; conditions: Homo sapiens, 192 h, KO-52 control cells, 8 days, confluence as measure of spheroid size; read-out: spheroid assay_OneTime KO-52 IC50
# IC50 values compiled below
Express the result in µM but write the number alone.

Inquiry: Could you tell me which IC50 is on file for CC(C)[C@@H]([C@H]1C[C@@H](N2C[C@H]3COC[C@H]3C2)C1)N1CC2(CCN(c3ncnnc3Oc3ccc(F)cc3-c3ncncc3C3CC3)C2)C1 (single isomer, unassigned) ?
Reply text: 0.31

Inquiry: Same for CC(C)C([C@H]1C[C@@H](N(C)C)C1)N1CC2(CCN(c3ncnnc3Oc3ccc(F)cc3-c3cncnc3C3CC3)C2)C1 (single isomer, unassigned) [Compound 7]
Reply text: 5.04

Inquiry: Do the same for CC(C)[C@H]([C@H]1C[C@@H](N(C)C)C1)N1CC2(CCN(c3ncnnc3Oc3ccc(F)cc3-c3ncccc3C3CC3)C2)C1 (single isomer, unassigned) please
Reply text: 0.39

New cases:
Inquiry: Quick one: IC50 of CC(C)[C@@H]([C@H]1C[C@@H](N2CC[C@@](C)(O)C2)C1)N1CC2(CCN(c3ncnnc3Oc3ccc(F)cc3-c3cnncc3C3CC3)C2)C1 (single isomer, unassigned) ?
Reply text: 14.2

---

Catalogue of compounds with associated pIC50
Molecular target: menin/MLL (terbium chelate-labeled menin, FITC-MBM1 peptide) (Homo sapiens, UniProt O00255, T541A)
Construct: Menin (a.a 1-610-6xhis tag)
Sequence (O00255 with tags, fused parts or gaps T541A): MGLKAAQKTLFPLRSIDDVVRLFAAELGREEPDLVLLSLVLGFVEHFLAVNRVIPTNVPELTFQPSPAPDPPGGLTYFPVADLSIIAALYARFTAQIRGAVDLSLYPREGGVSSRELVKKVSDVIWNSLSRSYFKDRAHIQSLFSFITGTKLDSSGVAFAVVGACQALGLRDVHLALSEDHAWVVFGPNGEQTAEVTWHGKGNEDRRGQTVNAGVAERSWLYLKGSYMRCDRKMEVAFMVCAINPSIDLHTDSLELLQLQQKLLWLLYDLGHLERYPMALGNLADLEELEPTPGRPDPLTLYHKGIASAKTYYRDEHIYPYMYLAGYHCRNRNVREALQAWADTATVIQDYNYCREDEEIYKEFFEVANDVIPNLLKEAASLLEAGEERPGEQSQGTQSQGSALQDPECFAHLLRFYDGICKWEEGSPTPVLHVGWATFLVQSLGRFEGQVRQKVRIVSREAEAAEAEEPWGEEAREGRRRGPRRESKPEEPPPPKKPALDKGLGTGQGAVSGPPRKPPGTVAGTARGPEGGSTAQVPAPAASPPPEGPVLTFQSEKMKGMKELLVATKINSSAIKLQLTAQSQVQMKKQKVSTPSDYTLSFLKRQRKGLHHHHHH
Test: Menin/MLL homogenous time-resolved fluorescence (HTRF) assay
Conditions: 30 min incubation
Please note pIC50 is a logarithmic value: minus log10 of concentration in mol/L. Answer with that number alone.

Inquiry: Look up pIC50: CC(=O)N1CCCN([C@H]2C[C@@H]([C@@H](C(C)C)N3CC4(CCN(c5ncnnc5Oc5ccc(F)cc5-c5cncnc5C5CC5)C4)C3)C2)CC1 (single isomer, unassigned)
Reply text: 9.70

Next:
Inquiry: Entry `Cc1ncc(-c2cc(F)ccc2Oc2nncnc2N2CCC3(C2)CN([C@@H](C(C)C)[C@H]2C[C@@H](N4C[C@@H]5[C@H](C4)[C@H]5NC(=O)C4CC4)C2)C3)c(C2CC2)n1` : reported pIC50 = ?
Reply text: 10.59

Inquiry: Follow-up entry: CC(=O)N[C@H]1C[C@@H](C(C(C)C)N2CC3(CCN(c4ncnnc4Oc4ccc(F)cc4-c4cccc(=O)n4C4CC4)C3)C2)C1 (some centres unmarked)
Reply text: 9.70

Inquiry: Next record, please: CC(C)[C@H]([C@H]1C[C@H](N2CC[C@@H](C(C)(C)O)C2)C1)N1CC2(CCN(c3ncnnc3Oc3ccc(F)cc3-c3cncnc3C3CC3)C2)C1 (single isomer, unassigned)
Reply text: 10.00

Inquiry: Then CC(=O)N1CCN([C@H]2C[C@@H]([C@@H](C(C)C)N3CC4(CCN(c5ncnnc5Oc5ccc(F)cc5-c5cnncc5C5CC5)C4)C3)C2)CC1 (single isomer, unassigned) ?
Reply text: 7.36
